Test system: L1210 leukemia ip in BDF1 mice, survival T/C
method: NCI In Vivo Anticancer Drug Screen. Data for tumor model L1210 Leukemia (intraperitoneal) in B6D2F1 (BDF1) mice
experimental setup: endpoint: mean survival time; dose: 50.0 mg/kg/injection; schedule: Q04DX003 (ip); vehicle: saline
Inconclusive results and toxic doses are left out. No stated cut-off is given here; in the data, active means T/C of 150% or more; inactive means T/C below 125%.
Your answer must be one of the following: Y = active, N = inactive

## Input What was the test verdict on `CNC(=O)CCC(=O)O` ?
## Output N

## Input Hi team, can someone confirm the assay call for `CCCCCCCCCCCCCC[N+](C)(C)CCCCCCCCCCCCCC` ?
## Output N

## Input What did the test return for `COc1cc(N2CCOCC2)ccc1N` ?
## Output N

## Input Could you please tell me the result logged for `CC(C)C(=O)CC(=O)C(C)C.CC(C)C(=O)CC(=O)C(C)C.[Cu]` in this assay?
## Output N

## Input // return assay outcome for `CCN(CC)CCN1CC(=O)Nc2cc(Cl)ccc21`
## Output N

## Input Give the logged outcome of this assay for the following compound: `O=C(CCN1CCCCCCC1)c1cccc([N+](=O)[O-])c1`
## Output N

## Input // param item: `COC(=O)C1=C(C(=O)OC)[N+](C)(C)N=C1[O-]` ; yields the recorded call
## Output N

## Input Outcome logged for `C[n+]1cc2ccccc2c2ccccc21` in this assay:
## Output N

## Input Status in this test for `C#CC[N+](CC)(CC)CC` ?
## Output N

## Input Hi team, can someone confirm the assay call for CC1CN1CCCNC(=O)C(=O)NCCCN1CC1C (configuration not stated) ?
## Output Y

## Input So what was the verdict on `N#Cc1ccc([N+](=O)[O-])cc1O` in this test?
## Output N

## Input For COC1OC(CN(CCCl)C(C)=O)C2OC(C)(C)OC12 (configuration not stated) , which call appears in the assay record?
## Output N
